System: Plasmodium berghei
Experiment: Screen against P. berghei liver stage (PbLuc), transformed with Luciferase, at 2uM
Assay type: functional, HepG2
Settings: tested at 2 uM
Hit rate of the full screen: of about 68,000 compounds, about 2,700 (4%) showed an effect of 50% or more. Only a selection was taken, and strong results are over-represented in it overall.
valueType: INHIBITION (%)
Give bare numbers, in %.

1. CN(Cc1nc2ccccc2c(=O)[nH]1)C1CC(=O)N(C2CC2)C1=O (stereo unspecified); -68.81
2. COc1ccc(C(=O)N2CCC(Nc3cccnn3)CC2)c(F)c1; -33.22
3. CCc1ncc2c(n1)CN(C(C)C(=O)N1CCOCC1)CC2 (stereo unspecified); 1.42

Go through the items and report each one's INHIBITION.
1. COc1ccnc(CN2CCCC(CCc3ccc(F)cc3)C2)c1OC (stereo unspecified)
2. O=C(CN1CC(c2nc(-c3ccco3)no2)C1)NCC1CCCO1 (stereo unspecified)
3. CC(C)(O)CSCCNC(=O)c1ccc(F)cc1Cl
4. CC(C)(O)CSCCNC(=O)c1cc(F)ccc1F
5. CSCC(C)(O)CNC(=O)c1ccc(F)cc1Cl (stereo unspecified)
6. Cc1cc(C(F)(F)F)n2nc(C3CCCN3C3CCSCC3)cc2n1 (stereo unspecified)
7. O=C(NCc1ccco1)[C@@H]1CC[C@@H]2[C@@H](CCN2CC2CC2)O1

Result block:
1. 58.03
2. 23.01
3. 58.69
4. 35.56
5. -29.65
6. 36
7. 22.89

Query block: Quick one: give measured INHIBITION for `Fc1ccc(F)c(CN2CCC(c3cc4ncccc4cn3)CC2)c1`
Result block: -20.28

* * *

Tested on: Plasmodium berghei
Assay: Screen against P. berghei liver stage (PbLuc), transformed with Luciferase, at 2uM
Type: functional, HepG2
Conditions: tested at 2 uM
In all, about 68,000 compounds went through this assay and about 2,700 (4%) showed an effect of 50% or more. The entries come from a sample that favours strong results as a whole.
Label false if INHIBITION falls below 10%; label true in every other case.

Reference set, count: 3
1) O=C(Nc1cc(CCC2CCN(CCO)CC2)ccn1)c1ccccn1; true
2) CN(C)C1CCN(C(=O)c2cc(-c3ccn(C)n3)n3ccccc23)CC1; false
3) Cc1oc(C(=O)O)cc1S(=O)(=O)Nc1ccc(Cl)c(Cl)c1; true

Query block: hey, is INHIBITION for this one >= 10%? CC(C)c1nc2n(n1)CC(NCc1nnc(C3CC3)o1)CC2 (configuration not stated)
Result block: false

Query block: hey, is INHIBITION for this one >= 10%? `Cc1oc(C(=O)O)cc1S(=O)(=O)Nc1ccc(Cl)c(F)c1`
Result block: true

Query block: hey, is INHIBITION for this one >= 10%? CN(CC1COCCO1)c1ncnc2cc(F)ccc12 (configuration not stated)
Result block: true

Query block: hey, is INHIBITION for this one >= 10%? CC(C(=O)N1CCOCC1)n1cc(Br)cn1 (configuration not stated)
Result block: true

Query block: hey, is INHIBITION for this one >= 10%? Cc1cc(C)c2c(N(C)CC3CCOC3)ncnc2n1 (configuration not stated)
Result block: true

Query block: hey, is INHIBITION for this one >= 10%? `CC(C)NC(=O)[C@@]12CCO[C@@H]1CCN(Cc1ccc3c(c1)OCO3)C2`
Result block: true

* * *

Tested on: Plasmodium berghei
Experiment: Screen against P. berghei liver stage (PbLuc), transformed with Luciferase, at 2uM
Type: functional, HepG2
Details: tested at 2 uM
The campaign covered roughly 68,000 compounds. About 2,700 (4%) showed an effect of 50% or more. The entries come from a sample that favours strong results as a whole.
valueType: INHIBITION
# output: number + unit

These recorded examples may help you get a feel for the data.
1. CN(C)Cc1nc(C(C)(C)NC(=O)C2CC(=O)N(CC3CC3)C2)no1 (stereo unspecified); 17.39%
2. COc1cccc(CNc2c(C)cnc3c2c(=O)n(C)c(=O)n3C)c1; -9.49%
3. Cc1cnc2c(c1NCc1ccncc1)c(=O)n(C)c(=O)n2C; 29.42%
4. COC(=O)c1sc(C(NC(=O)c2ccccc2)C2CC2)nc1C (stereo unspecified); -13.12%
5. O=C(C1CCOCC1)N1CCc2ncnc(-c3ccc(F)cc3)c2CC1; -7.01%
6. Cc1ccsc1C(=O)N(C)Cc1ccncc1; -32.02%
7. CCc1ccc(CN2CCc3[nH]nc(C(=O)N4CCNC(=O)C4)c3C2)o1; -15.83%
8. O=C(c1ccoc1)N1CCO[C@]2(CCC[C@@H]2COCc2ccncc2)C1; 35.48%

Go through the items and report each one's INHIBITION.
1. O=C(Cn1cc(-n2cccc2)cn1)NCC1CCC1
2. CCc1nnc(C2Cc3ccccc3CN2Cc2cc(C)on2)o1 (stereo unspecified)

Result block:
-28.99%
33.9%

* * *

Tested on: Plasmodium berghei
Assay: Screen against P. berghei liver stage (PbLuc), transformed with Luciferase, at 2uM
Assay type: functional, HepG2
Conditions: tested at 2 uM
Screen size: about 68,000 compounds; about 2,700 (4%) showed an effect of 50% or more. The sample as a whole holds a higher share of strong results than the screen did.
Give INHIBITION for every item shown.
Answers are plain numbers, in %.

1. CC(=O)N1CCN(c2cc(-n3cccc3)ncn2)CC1; 35.36
2. Cc1cc(NC(=O)CN2CCCC2c2noc(C)n2)n(C(C)(C)C)n1 (configuration not stated); 7.71
3. CC(C)n1nc2c(cc1=O)CN(CCOc1ccc(C#N)cc1)CC2; 9.8
4. CC(C)CNC(=O)C1=NOC2(CCN(Cc3ccc(C(C)C)cc3)C2)C1 (configuration not stated); 32.09
5. CCN(C(=O)Nc1nccs1)C(C)c1cccc(O)c1 (configuration not stated); -81.27

Go through the items and report each one's INHIBITION.
1. CC(C)(O)CN1CCN(C(=O)COCC(F)(F)F)CC1
2. COc1ccc2c(C)c(C(=O)N3CCC(NC(C)=O)C3)oc2c1 (configuration not stated)
3. CC(Cn1cc(Br)cn1)C(=O)Nc1ccc(C(N)=O)cc1 (configuration not stated)
4. CCn1c(N)nc2cc(C(=O)N3CCC(N4CCCC4)CC3)cnc21
5. CCS(=O)(=O)N1C[C@@H](Oc2ccccn2)[C@H]2OCCC[C@H]21
6. CCCN1CCN(Cc2nccn2CC)C(C)C1 (configuration not stated)
7. Cc1ccc(N(C)Cc2nnnn2C2CC2)c(C)c1

Result block:
1. 13.76
2. -41.96
3. -34.79
4. -12.08
5. 13.38
6. 16.97
7. -11.28

* * *

Give INHIBITION for every item shown.
System: Plasmodium berghei
Assay: Screen against P. berghei liver stage (PbLuc), transformed with Luciferase, at 2uM
Type: functional, HepG2
Conditions: tested at 2 uM
In all, about 68,000 compounds went through this assay and about 2,700 (4%) showed an effect of 50% or more. What follows is part of a selection rich in strong results, with near analogues and random picks from the rest.
One number for each entry, in %.

These recorded examples may help you get a feel for the data.
1. COCCn1ccc(=O)c(OCC(=O)Nc2cccc(Cl)c2)c1C; 6.41
2. Cc1cncc(C(=O)N2CCO[C@H]3[C@H](Oc4ccccn4)CC[C@@H]32)c1; 28.88
3. CC(C)C1CN(Cc2c[nH]cn2)CCCN1CC1CC1 (stereo unspecified); -28.5
4. CCc1noc(CN(CC)C(=O)CC2C(=O)NCCN2CC=C(C)C)n1 (stereo unspecified); 3.66
5. OCC1(O)CCN(Cc2noc(-c3ccccc3)n2)CC1; 26.3

Go through the items and report each one's INHIBITION.
1. CN1CCCC1CCn1ccnc1-c1nc(-c2ccccc2)no1 (stereo unspecified)
2. CCc1cnc(C)nc1N(C)CCCc1cnn(C)c1
3. CCN(Cc1noc(C)n1)C(=O)CC1C(=O)NCCN1CC(C)(C)C (stereo unspecified)

Result block:
[17.37, -32.88, 55.84]

Go through the items and report each one's INHIBITION.
1. O=C(CC1CCCCC1)N1C[C@@H]2CC[C@H]1CN(Cc1cccnc1)C2
2. Cc1n[nH]c(C)c1C1COCCN1C(=O)Cc1cccc(F)c1 (stereo unspecified)

Result block:
1: 9.56; 2: 13.24

Query block: Quick one: give measured INHIBITION for `COC[C@@]12CCO[C@@H]1CCN(C(=O)Cc1ccccc1C)C2`
Result block: 54.56

* * *

Give INHIBITION for every item shown.
Test system: Plasmodium berghei
Assay: Screen against P. berghei liver stage (PbLuc), transformed with Luciferase, at 2uM
Format: functional, HepG2
Settings: tested at 2 uM
The campaign covered roughly 68,000 compounds. About 2,700 (4%) showed an effect of 50% or more. What follows is part of a selection rich in strong results, with near analogues and random picks from the rest.
# output: number + unit

Go through the items and report each one's INHIBITION.
1. O=C(NCc1cc[nH]n1)NCC(O)c1ccc(F)c(F)c1 (centres undefined)
2. CC[C@H]1N(Cc2ccco2)CCC[C@]12CCC(=O)N2C
3. COc1ccc(NC(=O)NCC(O)c2ccc(F)cc2F)c(OC)c1 (centres undefined)
4. NCC1(c2cccc(C(F)(F)F)c2)CCC1

Result block:
1: -87.87%; 2: 23.26%; 3: 47.72%; 4: 39.97%

Go through the items and report each one's INHIBITION.
1. CC(C)N(C(=O)CCc1cccc(F)c1)C1CCOCC1
2. CO[C@@H]1CN(Cc2scnc2C)[C@@H]2CCCO[C@@H]21
3. CC(C)(C)C(NC(=O)CCS(C)(=O)=O)c1ccc(F)cc1F (centres undefined)
4. CC(C)c1nc2c(n1C)CCN(CCS(=O)(=O)c1ccccc1)C2
5. CC(C)n1nc(Cn2cccn2)c2c1CN(CC1CCOC1)C2 (centres undefined)

Result block:
["-7.16%", "34.23%", "41.84%", "18.35%", "20.2%"]

Go through the items and report each one's INHIBITION.
1. COCC(Nc1ncnc2sc(C(=O)O)c(C)c12)c1ccnn1C (centres undefined)
2. O=C(NCC1CCS(=O)(=O)C1)c1ccco1 (centres undefined)
3. CNS(=O)(=O)c1ccc(CNC(=O)N(C)C(C)COC)cc1 (centres undefined)

Result block:
["-1.87%", "69.48%", "-30.49%"]

Go through the items and report each one's INHIBITION.
1. COCCO[C@@H]1C[C@H]2CN(C(=O)c3cnccn3)CCN2C1
2. c1csc(-c2noc(CCCNC3CCc4ncnn4C3)n2)c1 (centres undefined)
3. CCOc1cc(C)ccc1NC(=O)N(C)Cc1cnn(C)c1
4. Cc1ncsc1C(=O)N1CCN(Cc2ccccc2)CC1C (centres undefined)
5. COc1ccc(CCC(=O)N(C(C)C)C2CCOCC2)cc1

Result block:
["-1.27%", "-15.69%", "17.39%", "-12.06%", "20.76%"]
